System: SNB-75 CNS
Assay: NCI-60 one-dose screen, 48 h (100 = growth as untreated, 0 = no growth, -100 = all killed)
Settings: 10 µM unless noted
About 83,000 compounds went through this panel and 20% of them were active in at least one assay; those are over-represented in the sample as a whole.
For each entry below, report its growth value.
Dear colleague, please return just the value in %, with no unit written.

Recorded growth of N#CC1=C(c2ccco2)Nc2c(c(-c3ccccc3)nn2-c2ccccc2)C12C(=O)Nc1ccc(Cl)cc12 (centres undefined) , please.
-56.4

Another compound to look at: "C[C@H]1[C@@H](CC(=O)N[C@@H](Cc2coc3ccccc23)B(O)O)O[C@@H]2OC3(C)CC[C@H]4[C@H](C)CC[C@@H]1[C@@]24O3"
-19

And for "Cn1cc(-c2cc3nc(-c4c[nH]c5ccccc45)cc(N)n3n2)c2ccccc21" ?
91.6

Next entry: "COc1cc(C=O)ccc1OC(=O)c1cc(-c2ccc(C)cc2)n(-c2ccc(S(C)(=O)=O)cc2)n1"
104

---

Test system: SK-OV-3 ovarian
Test: NCI-60 one-dose screen, 48 h (100 = growth as untreated, 0 = no growth, -100 = all killed)
Conditions: 10 µM unless noted
The panel holds about 83,000 compounds, 20% with a hit somewhere; the sample as a whole holds those more often.
Lab note: compare growth with 60%, writing yes (1) if less and no (0) if equal or more.

In the record for N#CC1=C(c2ccco2)Nc2c(c(-c3ccccc3)nn2-c2ccccc2)C12C(=O)Nc1ccc(Cl)cc12 (centres undefined) , is growth less than 60%?
yes (1)

Moving on to the next compound: "COc1cncc(-c2ccc3ncnc(N4CCc5ccc(Cl)cc54)c3c2)c1"
yes (1)

And then "O=C(N/N=C/c1c[nH]c2ccccc12)Nc1ccc(F)c(Cl)c1" , what is it?
yes (1)

Would you mind doing "O=[N+]([O-])c1cccc(-c2nnc3c(/C=C/c4ccc(F)cc4)nc4ccccc4n23)c1" as well?
no (0)

Next: "O=C(NN1C(=O)/C(=C/C=C/c2ccc([N+](=O)[O-])o2)SC1=S)c1ccc(O)cc1"
yes (1)

Consider next the compound "CS(=O)(=O)Nc1cccc(-n2cnc3cc(-c4ccc(O)cc4)ccc32)c1" in the same way.
yes (1)

Same thing, different compound: "Cn1cc(-c2cc(N)n3nc(-c4c[nH]c5ccccc45)cc3n2)c2cc(Cl)ccc21"
yes (1)

Another: "Cn1cc(-c2cc(N)n3nc(-c4c[nH]c5ccc(Cl)cc45)cc3n2)c2cc(Br)cnc21"
no (0)

---

Give growth for every item shown.
System: OVCAR-4 ovarian
Assay: NCI-60 one-dose screen, 48 h (100 = growth as untreated, 0 = no growth, -100 = all killed)
Details: 10 µM unless noted
The panel holds about 83,000 compounds, 20% with a hit somewhere; the sample as a whole holds those more often. Activity calls are given as the source filed them. The calls were made as follows: active = growth percent below 10; inactive = the rest.

Identify the measured growth of "CCCSc1nnc(-c2sc3nc4ccccc4n3c2C)o1" for OVCAR-4 ovarian.
104% (inactive)

Could you do the same for "N/C(=N\c1nc2ccc([N+](=O)[O-])cc2s1)NC(=O)Nc1ccccc1Cl" , please?
-26.5% (active)

Now consider "COc1ccc(N=Nc2c(N)nn3c(-c4cc5ccccc5oc4=O)ccnc23)cc1" and answer again.
70.8% (inactive)

Lookup "COc1sc(/C=N/NC(=O)c2[nH]c3ccc(Br)cc3c2-c2ccccc2)cc1Br"
41.9% (inactive)

What would you report for "O=C(Nc1nc2ccccc2s1)Nc1ccccc1Cl" ?
34.2% (inactive)

And for "COc1cc(/C=C/C(=O)c2cnn(-c3cc(=O)[nH]c4ccccc34)c2C)cc(OC)c1OC" ?
39.4% (inactive)

Here is the next molecule: "COc1ccc(S(=O)(=O)Nc2ccc(-c3ccc4c(c3)NC(=O)/C4=C\c3ccc[nH]3)cc2)cc1OC"
8.08% (active)

Okay, and "COc1ccc(NC(=O)CSc2nnc(-c3ccc(-c4nc5ccc(Cl)cc5[nH]4)cc3)o2)cc1" ?
33.8% (inactive)

And then O=C(OCCOCCO)N(c1cccc(Br)c1)c1nc(SCCN2CCOCC2)nc2c1cnn2CC(Cl)c1ccc(Br)cc1 (stereo not given) , what is it?
23.5% (inactive)

Moving on to the next molecule: "COc1cc(-c2ccc3ncnc(N4CCc5ccc(Cl)cc54)c3c2)cnc1Cl"
33.3% (inactive)

Would you mind doing "Cn1cc(-c2cc(N)n3nc(-c4c[nH]c5ccc(F)cc45)cc3n2)c2cccnc21" as well?
-30% (active)

And then "Cc1cccc(-c2ccccc2Oc2ccc3nnc(Cl)n3n2)c1" , what is it?
104% (inactive)

Entry to check: "Cc1ccc(-c2cc(C(=O)N=Nc3c(O)[nH]c4ccc(F)cc34)c3ccccc3n2)cc1"
1.07% (active)

Item: "CC1=C(C)C(=O)C(NCCN2CCOCC2)=C(Br)C1=O"
-67.4% (active)

Quick one: "Cc1[nH]nc2ccc3nc(-c4cnn(CCO)c4)c4c(c3c12)CCCC4"
63.1% (inactive)

Follow-up item: CCOc1ccc2[nH]c(=O)c(C(c3nnnn3CC3CCCO3)N3CCN(Cc4ccccc4)CC3)cc2c1 (stereo not given)
94.9% (inactive)

What do we get for "COc1c(B(O)O)cc(F)cc1-c1nc2c(F)cc3[nH]ncc3c2c2c1CCCC2" ?
39.4% (inactive)

Now the molecule "COc1ccc(-c2nc3ccc(-c4nnc(SCc5ccccc5)o4)cc3[nH]2)cc1"
-57.7% (active)

Now try Cc1cc(C)c2[nH]c(=O)c(C(c3nnnn3Cc3ccc4c(c3)OCO4)N3CCN(C)CC3)cc2c1 (stereo not given) .
108% (inactive)

Please answer likewise for Cc1ccc(C2CC(c3ccc(NC(=O)Nc4ccccc4)cc3)=NN2c2ccc(S(N)(=O)=O)cc2)cc1 (stereo not given)
-87.6% (active)

---

System: ACHN renal
Assay: NCI-60 one-dose screen, 48 h
Conditions: 10 µM unless noted
This is part of a sample that, as a whole, favours compounds with a hit. Of some 83,000 tested, about 20% had one in any assay. Activity calls are given as the source filed them. How the source made its calls: active means growth percent below 10; inactive means the rest.
API: response.call in TRUE (active), FALSE (inactive)

Call for entry "Cc1ccc(Cl)cc1NC(=O)N/C(N)=N/c1nc2ccccc2s1" :
TRUE

Try "CN(C)c1nc(NCCNS(=O)(=O)c2ccc(C(=O)/C=C/c3ccccc3)cc2)nc(N2CCOCC2)n1" next.
FALSE

Cool, now "Cn1cc(-c2cc3nc(-c4cn(C)c5ncc(Br)cc45)cc(N)n3n2)c2cc(F)ccc21"
TRUE

Repeat for the following compound: "COc1cccc(/C=C/c2nc3ccccc3c(=O)n2CC(=O)Nc2ccccc2)c1"
TRUE

Again, but for "Nc1cc(-c2c[nH]c3ccc(Br)cc23)nc2cc(-c3c[nH]c4ccccc34)nn12"
TRUE

---

System: KM12 colon
Assay: NCI-60 one-dose screen, 48 h (100 = growth as untreated, 0 = no growth, -100 = all killed)
Settings: 10 µM
Experimental: Growth inhibition of the KM12 human tumor cell line is measured as a screen for anti-cancer activity. Cells are grown in 96 well plates and exposed to the test compound for 48 hours. Compounds are tested at a single concentration, which is 10^-5 M for most compounds. The reported endpoint is percent growth (GI% or GIPRCNT), where numbers from 0 - 100% represent growth inhibition, and numbers from -100% - 0 represent cell death. For example, a value of 40 represents 60% growth inhibition. […]
This is part of a sample that, as a whole, favours compounds with a hit. Of some 83,000 tested, about 20% had one in any assay.
OBSERVED_PROPERTY: growth (%)
Give your result in % as a bare value.

Value lookup for growth; key = "CC/C(=C(\c1ccc(O)cc1)c1ccc(OCCNC)cc1)c1ccccc1"
65.9

Same question, "CC/C(=C(/c1ccc(O)cc1)c1ccc(OCCN(C)C(=O)COCCOCCNC(=O)c2ccc3c(c2)CN([C@@H]2CCC(=O)NC2=O)C3=O)cc1)c1ccccc1" this time
95.5

Cool, now "CC/C(=C(/c1ccc(O)cc1)c1ccc(OCCN(C)C(=O)CCOCCNC(=O)Cc2ccc3c(c2)CN([C@@H]2CCC(=O)NC2=O)C3=O)cc1)c1ccccc1"
66.7

And the next one, "CC/C(=C(\c1ccc(O)cc1)c1ccc(OCCN(C)C(=O)CCOCCNC(=O)c2ccc3c(c2)CN([C@@H]2CCC(=O)NC2=O)C3=O)cc1)c1ccccc1" ?
103

---

For each record, write down the corresponding growth.
System: T-47D breast
Test: NCI-60 one-dose screen, 48 h (100 = growth as untreated, 0 = no growth, -100 = all killed)
Conditions: 10 µM unless noted
Compounds without any hit were thinned out: in the full panel of roughly 83,000, 20% have a hit.
Answer format: numeric, % implied, no suffix.

Name the reported growth value associated with the molecule "COc1ccc(NC(=O)Cn2c(/C=C/c3ccc([N+](=O)[O-])cc3)nc3ccccc3c2=O)cc1"
56.1

For "COC(=O)c1cccc(Oc2ccc(NC(=O)Nc3cc(C(F)(F)F)ccc3F)cc2)c1" then?
47

Here is the next molecule: "CC(=O)C[n+]1cccc2c3ccccc3ccc21"
77.2

Do the same for "O=C(CSc1nnc(-c2ccc(-c3nc4ccc(Cl)cc4[nH]3)cc2)o1)Nc1ccc(Br)cc1" please
41.4

# iterate: "COc1ccc(NC(=O)N/N=C/c2c[nH]c3ccccc23)cc1"
43.3

Thanks! And "C#CCN(C)CCCOc1ccc(N(CC)C(=O)c2cc(C(C)C)c(O)cc2O)cc1Cl" ?
10.1

Repeat with O=C1CCC(N2C(=O)c3cccc(NCCOCCOCCOCCC(=O)NCCCC(=O)NC(c4ccc5c(c4)OCO5)c4cc(Cl)c5cccnc5c4O)c3C2=O)C(=O)C1 (centres undefined)
16

Next up: CC1=NN(C2=NC(=O)C(CC(=O)Nc3ccccc3C(F)(F)F)S2)C(c2ccc(N(C)C)cc2)C1 (centres undefined)
48

Next up: O=C(OCCOCCO)N(c1cccc(Br)c1)c1nc(SCCN2CCOCC2)nc2c1cnn2CC(Cl)c1ccc(Br)cc1 (centres undefined)
13.6
